# Species: Homo sapiens
# assay method text: Selectivity ratio of IC50 for 20S immunoproteasome beta 2 (unknown origin) to IC50 for 20S constitutive proteasome beta 2 trypsin-like activity (unknown origin)
value type: Ratio IC50
Write no unit; give the number alone.

Examples with answers:
* CC1CCC(C[C@H](NC(=O)[C@@H](NC(=O)[C@H](Cc2ccc(CN)cc2)NC(=O)[C@H](Cc2ccccc2)N=[N+]=[N-])C(C)C)C(=O)[C@@]2(C)CO2)CC1 (stereo partly specified) | 1
* Cc1ncc(C(=O)N[C@@H](CC(C)C)C(=O)N[C@@H](CC2CCCC3CCCCC32)C(=O)N[C@H](/C=C/S(C)(=O)=O)Cc2ccc(CN)cc2)s1 (stereo partly specified) | 4
* CC(C)C[C@H](NC(=O)[C@H](Cc1ccccc1)N=[N+]=[N-])C(=O)N[C@@H](CC(F)(F)F)C(=O)N[C@H](/C=C/S(C)(=O)=O)Cc1ccc(CN)cc1 | 6
* Cc1ncc(C(=O)N[C@@H](CC2CCCC3CCCCC32)C(=O)N[C@@H](CC(C)C)C(=O)N[C@H](/C=C/S(C)(=O)=O)Cc2ccc(CN)cc2)s1 (stereo partly specified) | 21
* CC(C)[C@H](NC(=O)[C@H](Cc1ccc(CN)cc1)NC(=O)[C@H](Cc1ccccc1)N=[N+]=[N-])C(=O)N[C@@H](CC1CCC(C2CCCCC2)CC1)C(=O)[C@@]1(C)CO1 (stereo partly specified) | 1.6

Next:
Input: Name the recorded Ratio IC50 of the item `CC(C)C[C@H](NC(=O)CN1CCOCC1)C(=O)N[C@@H](CC(C)C)C(=O)N[C@H](/C=C/S(C)(=O)=O)Cc1ccc(CN)cc1` in your answer.
Output: 1

----------
# target or test system: Proteasome subunit beta type-8 (Homo sapiens, UniProt P28062)
# Sequence (P28062 whole entry): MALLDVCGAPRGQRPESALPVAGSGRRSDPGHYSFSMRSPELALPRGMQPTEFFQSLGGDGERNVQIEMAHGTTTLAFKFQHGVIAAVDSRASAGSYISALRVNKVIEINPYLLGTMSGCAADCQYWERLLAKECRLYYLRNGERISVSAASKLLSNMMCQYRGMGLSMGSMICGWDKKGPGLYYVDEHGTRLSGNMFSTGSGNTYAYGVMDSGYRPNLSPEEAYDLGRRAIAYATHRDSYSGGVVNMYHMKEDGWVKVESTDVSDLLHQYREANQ
# assay method text: Inhibition of 20S immunoproteasome beta 5 in human RPMI8226 cell lysates after 1 hr by coomassie brilliant blue staining-based fluorescence assay
# Type: subcellular, Lysate
pIC50: −log10 of the molar value.
value type: pIC50

• CC(C)C[C@H](NC(=O)[C@H](Cc1ccccc1)N=[N+]=[N-])C(=O)N[C@H](C(=O)N[C@H](/C=C/S(C)(=O)=O)Cc1ccc(CN)cc1)[C@@H](C)O = < 5.00

// next item, pIC50 requested
Input: Tell us which pIC50 value is on record for `COC[C@H](NC(=O)[C@H](CC(C)C)NC(=O)c1cnc(C)s1)C(=O)N[C@H](/C=C/S(C)(=O)=O)Cc1ccc(CN)cc1`
Output: < 5.00

----------
# target or test system: Proteasome subunit beta type-10 (Homo sapiens)
# Sequence (P40306 whole entry): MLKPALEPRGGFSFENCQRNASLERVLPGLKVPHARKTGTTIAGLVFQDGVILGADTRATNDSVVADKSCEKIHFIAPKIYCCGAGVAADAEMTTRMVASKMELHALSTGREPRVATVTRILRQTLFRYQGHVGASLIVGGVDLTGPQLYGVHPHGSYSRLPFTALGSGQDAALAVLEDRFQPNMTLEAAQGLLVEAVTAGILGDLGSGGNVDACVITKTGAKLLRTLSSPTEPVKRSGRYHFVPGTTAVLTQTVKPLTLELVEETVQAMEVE
# assay method text: Inhibition of 20S immunoproteasome beta 2 (unknown origin) by cell based ABPP assay
pIC50: −log10 of the molar value.
Please enter 1 (yes) where pIC50 is greater than or equal to 6, and 0 (no) where it is lower.

Some entries whose results are on file:
* CC(C)C[C@H](NC(=O)[C@H](Cc1ccccc1)N=[N+]=[N-])C(=O)NCC(=O)N[C@H](/C=C/S(C)(=O)=O)Cc1ccc(CN)cc1 | 0 (no)
* Cc1ncc(C(=O)N[C@@H](CC(C)C)C(=O)N[C@@H](CC2CCCC3CCCCC32)C(=O)N[C@H](/C=C/S(C)(=O)=O)Cc2ccc(CN)cc2)s1 (stereo partly drawn) | 1 (yes)
* Cc1ncc(C(=O)N[C@@H](CC(C)C)C(=O)N[C@@H](CC2CCC(C)CC2)C(=O)N[C@H](/C=C/S(C)(=O)=O)Cc2ccc(CN)cc2)s1 (stereo partly drawn) | 1 (yes)
* Cc1ncc(C(=O)N[C@@H](CC2CCCC3CCCCC32)C(=O)N[C@@H](CC(C)C)C(=O)N[C@H](/C=C/S(C)(=O)=O)Cc2ccc(CN)cc2)s1 (stereo partly drawn) | 0 (no)
* Cc1ncc(C(=O)N[C@@H](CC2CCC(C3CCCCC3)CC2)C(=O)N[C@@H](CC(C)C)C(=O)N[C@H](/C=C/S(C)(=O)=O)Cc2ccc(CN)cc2)s1 (stereo partly drawn) | 0 (no)
* COC[C@H](NC(=O)[C@H](CC(C)C)NC(=O)[C@H](Cc1ccccc1)N=[N+]=[N-])C(=O)N[C@H](/C=C/S(C)(=O)=O)Cc1ccc(CN)cc1 | 1 (yes)

Input: Say whether Cc1ncc(C(=O)N[C@@H](CC(C)C)C(=O)N[C@@H](CC2CCC(C3CCCCC3)CC2)C(=O)N[C@H](/C=C/S(C)(=O)=O)Cc2ccc(CN)cc2)s1 (stereo partly drawn) shows pIC50 of 6 or more.
Output: 1 (yes)

Input: Record `CC(C)C[C@H](NC(=O)c1cnccn1)C(=O)N[C@@H](CC(C)C)C(=O)N[C@H](/C=C/S(C)(=O)=O)Cc1ccc(CN)cc1` ; criterion: pIC50 no lower than 6. Met?
Output: 0 (no)

Input: Does the reported pIC50 for `Cc1ncc(C(=O)N[C@@H](CC(C)C)C(=O)N[C@@H](CCC2CCCCC2)C(=O)N[C@H](/C=C/S(C)(=O)=O)Cc2ccc(CN)cc2)s1` fall at or above the 6 mark?
Output: 1 (yes)

Input: Is pIC50 for Cc1ncc(C(=O)N[C@@H](CC2CCC(C)CC2)C(=O)N[C@@H](CC(C)C)C(=O)N[C@H](/C=C/S(C)(=O)=O)Cc2ccc(CN)cc2)s1 (stereo partly drawn) at or above 6?
Output: 1 (yes)

Input: Test whether the molecule `CC(C)C[C@H](NC(=O)c1ccc(-c2ccccc2)nc1)C(=O)N[C@@H](CC(C)C)C(=O)N[C@H](/C=C/S(C)(=O)=O)Cc1ccc(CN)cc1` records pIC50 of 6 or higher.
Output: 1 (yes)

Input: Please tell me: is the molecule `COC[C@H](NC(=O)[C@H](CC(C)C)NC(=O)c1cnc(C)s1)C(=O)N[C@H](/C=C/S(C)(=O)=O)Cc1ccc(CN)cc1` at or over 6 in terms of pIC50?
Output: 0 (no)

Input: Is the recorded value of pIC50 equal to or greater than 6 for this molecule? Cc1ncc(C(=O)N[C@@H](CC(C)C)C(=O)N[C@@H](CC2CCC3CCCCC3C2)C(=O)N[C@H](/C=C/S(C)(=O)=O)Cc2ccc(CN)cc2)s1 (stereo partly drawn)
Output: 1 (yes)

Input: State whether the measured pIC50 reaches 6, counting equality as reaching it, for `CC(C)C[C@H](NC(=O)CN1CCOCC1)C(=O)N[C@@H](CC(C)C)C(=O)N[C@H](/C=C/S(C)(=O)=O)Cc1ccc(CN)cc1`
Output: 1 (yes)

Input: Quick check, pIC50 >= 6? `CC(C)C[C@H](NC(=O)[C@H](Cc1ccccc1)N=[N+]=[N-])C(=O)N[C@@H](CC(C)(C)F)C(=O)N[C@H](/C=C/S(C)(=O)=O)Cc1ccc(CN)cc1`
Output: 1 (yes)

Input: For this molecule, is measured pIC50 6 or higher? `CC(C)C[C@H](NC(=O)[C@H](Cc1ccccc1)N=[N+]=[N-])C(=O)N[C@@H](CO)C(=O)N[C@H](/C=C/S(C)(=O)=O)Cc1ccc(CN)cc1`
Output: 1 (yes)
